test: chemical genetic growth profiling, strain panel (AID 1159580);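 note: tested at 20 µM; growth read once vehicle control cultures reached saturation at 30 °C; 1 = growth at the plate median or of vehicle wells; lower values mean less growth of the strain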; conditions: S. cerevisiae deletion strains, growth OD, locus YNL322C, strain KRE1 (second series), hits give low values
Among all 5,500 compounds or so, about 2,000 (36%) were called active. Not shown: some 18% with an inconclusive outcome. This is one part of the list.
Param label: returns Satisfied when normalized growth < 1, returns Not satisfied otherwise, including exact equality.

{"columns": ["MOLECULE", "ASSIGNED LABEL"],
 "data": [
  ["CC[C@@]1(O)C[C@H](O[C@H]2C[C@H](N(C)C)[C@H](O)[C@H](C)O2)c2c(cc3c(c2O)C(=O)c2c(O)cccc2C3=O)[C@H]1C(=O)OC", "Satisfied"],
  ["c1ccc2c(c1)CCCC2C1=NCCN1 (stereo not given)", "Not satisfied"]
]}

Problem: For the molecule COc1ccc2c(c1)OC/C(=C\c1ccc(OC)c(O)c1)C2=O , is normalized growth under 1?
Satisfied

Is normalized growth strictly under 1 for the entry O=c1cccc2ccc(O)c(O)c2c1O ?
Satisfied

Decide: normalized growth of CCN(CC)Cc1ccc(Nc2ccnc3cc(Cl)ccc23)cc1O strictly below 1?
Not satisfied

---

experiment: chemical genetic growth profiling, strain panel (AID 1159580);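 note: tested at 20 µM; growth read once vehicle control cultures reached saturation at 30 °C; 1 = growth at the plate median or of vehicle wells; lower values mean less growth of the strain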; conditions: S. cerevisiae deletion strains, growth OD, locus YGL078C, strain dbp3, hits give low values
The campaign covered roughly 5,500 compounds. About 2,000 (36%) were called active. Another 18% or so got no clear call; they are omitted. The list shows a part of the results.
Entries and their normalized growth
No unit in the answer, only the number.

Worked cases, answers included:
{"columns": ["MOLECULE", "normalized growth"],
 "data": [
  ["c1ccc2c(c1)sc1ccccc12", 0.973],
  ["CCC[C@H](N[C@@H](C)C(=O)N1[C@H](C(=O)O)C[C@@H]2CCCC[C@@H]21)C(=O)OCC", 1.02],
  ["COc1ccc(C(CN(C)C)C2(O)CCCCC2)cc1 (configuration not stated)", 0.989],
  ["O=C1c2ccc(O)cc2O[C@H](c2cc(O)c(O)c(O)c2)[C@H]1O", 1.01],
  ["C[n+]1c2cc(N)ccc2cc2ccc(N)cc21", 0.937],
  ["O=S(=O)(O)CCS", 0.976],
  ["COc1ccc(C(c2ccc(OC)cc2)C(Cl)(Cl)Cl)cc1", 0.991],
  ["O=c1cccc2ccc(O)c(O)c2c1O", 1.03]
]}

Noted for O=C(O)c1cc2cc(F)ccc2[nH]1 : its normalized growth reads 1.01

Entry COC(=O)[C@@H]1OC(=O)C2OC23[C@@]1(C)CCC1[C@]2(C)C(C[C@H](O)[C@]13C)C(C)(C)[C@H](OC(C)=O)C[C@@H]2OC(C)=O (some centres not stated) , normalized growth reported as 0.994

normalized growth reported for this molecule CN(C)CCN(Cc1ccccc1)c1ccccn1 : 0.991

# normalized growth (molecule: O=C(O)CCCc1ccccc1 ) is 0.933

---

assay: chemical genetic growth profiling, strain panel (AID 1159580);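 note: tested at 20 µM; growth read once vehicle control cultures reached saturation at 30 °C; 1 = growth at the plate median or of vehicle wells; lower values mean less growth of the strain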; details: S. cerevisiae deletion strains, growth OD, locus YLR262C, strain YPT6 (second series)
Screen size: about 5,500 compounds; about 2,000 (36%) were called active. Roughly 18% stayed inconclusive and do not appear here. Rule as the data show it: active = normalized growth mostly below about 0.91 (no sharp cut-off); inconclusive = no clear call, values can overlap the other calls; inactive = mostly above about 0.92. The list shows a part of the results.
Your reply should match one of these outcome classes. Y for active, N for inactive

The examples below pair each entry with its known result.
{"columns": ["COMPOUND", "ASSIGNED LABEL"],
 "data": [
  ["Oc1cc(O)c2c(c1)O[C@H](c1cc(O)c(O)c(O)c1)[C@H](O)C2", "N"],
  ["C[C@H]1COc2c(N3CCN(C)CC3)c(F)cc3c(=O)c(C(=O)O)cn1c23", "N"],
  ["O=C(/C=C/c1ccc(O)c(O)c1)OCCc1ccccc1", "Y"],
  ["OCCc1ccccc1", "N"],
  ["c1ccc2c(c1)CCCC2C1=NCCN1 (stereo unspecified)", "N"]
]}

# fetch the recorded call for O=C(O)/C=C/c1ccc(O)c(O)c1 here
N

Hello, I am checking results. What call was entered for CC1(C)S[C@@H]2[C@H](NC(=O)[C@H](N)c3ccccc3)C(=O)N2[C@H]1C(=O)O ?
N

Could you please tell me the result logged for Cc1ncc(CNC(=O)N(CCCl)N=O)c(N)n1 in this assay?
N
